experimental.system: mutant MGL (Homo sapiens, UniProt Q99685, L169S/L176S)
Construct: purified mutant MGL (mut-MGLL 11-313 L179S L186S)
assay.details: MGL ThermoFluor Assay - Mutant
reported.conditions: 0.07 mg/ml mutant MGL, 100 μM ANS, pH 7.0
property.name: Kd (nM)

Consider the following illustrative entries.
1) O=C(NC1CN(C2CN(C(=O)c3ccc4nc(Br)sc4c3)C2)C1)c1cscn1 :: 3400
2) O=C(NC1CN(C2CN(C(=O)c3ccc(Br)cc3)C2)C1)c1nccs1 :: 3330
3) O=C(c1sc2cc(Br)ccc2c1Cl)N1CC(N2CC(N3Cc4ccccc4C3=O)C2)C1 [Cpd 75] :: 7
4) O=C(c1ccc2c(ccn2-c2ccc(C(F)(F)F)cc2)c1)N1CC(N2CC(N3Cc4ccccc4C3=O)C2)C1 :: 3.5

A: CS(=O)(=O)c1cccc(-c2ccc(C(=O)N3CC(N4CC(N5Cc6ccccc6C5=O)C4)C3)cc2)c1
B: O=C(NC1CN(C2CN(C(=O)c3ccc(-c4cccc(C(F)(F)F)c4)cc3)C2)C1)c1nccs1
# returns the entry with the larger Kd; inputs A and B Let me know the label of the one you choose.
A
(A: 192 nM, B: 11.2 nM)

A: O=C(c1ccc2c(ccn2-c2ccccc2)c1)N1CC(N2CC(N3Cc4ccccc4C3=O)C2)C1
B: O=C(c1cc2ccc(C(F)(F)F)cc2s1)N1CC(N2CC(N3Cc4ccccc4C3=O)C2)C1
# returns the entry with the larger Kd; inputs A and B Let me know the label of the one you choose.
A
(A: 25 nM, B: 16 nM)

---

experimental.system: mutant MGL (Homo sapiens, UniProt Q99685, L169S/L176S)
Construct: purified mutant MGL (mut-MGLL 11-313 L179S L186S)
Sequence (Q99685 1-303 L169S/L176S): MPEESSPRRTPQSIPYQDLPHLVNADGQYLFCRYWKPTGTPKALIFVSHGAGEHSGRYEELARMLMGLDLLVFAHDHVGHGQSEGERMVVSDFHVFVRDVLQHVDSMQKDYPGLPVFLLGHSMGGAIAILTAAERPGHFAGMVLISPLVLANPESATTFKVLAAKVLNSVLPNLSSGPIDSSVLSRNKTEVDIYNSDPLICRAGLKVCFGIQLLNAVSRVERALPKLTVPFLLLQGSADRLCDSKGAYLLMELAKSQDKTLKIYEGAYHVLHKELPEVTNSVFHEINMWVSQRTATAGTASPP
assay.details: MGL ThermoFluor Assay - Mutant
reported.conditions: 0.07 mg/ml mutant MGL, 100 μM ANS, pH 7.0
pKd: −log10 of the molar value.
property.name: pKd

1. Cc1cc(-c2cccc(C(F)(F)F)c2)ccc1C(=O)N1CC(N2CC(NC(=O)c3nccs3)C2)C1 [Cpd 58] :: 7.18

a: O=C(c1ccc(-c2ccccc2)cc1)N1CC(N2CC(N3Cc4ccccc4C3=O)C2)C1 [Cpd 92]
b: O=C(NC1CN(C2CN(C(=O)c3ccc(-c4cccc(C(F)(F)F)c4)cc3F)C2)C1)c1nccs1 [Cpd 64]
# returns the entry with the larger pKd; inputs a and b Let me know the label of the one you choose.
b

---

experimental.system: MGL (Rattus norvegicus, UniProt Q8R431)
Construct: one g rat brain was homogenized using a Polytron homogenizer; from tissue; host or cells: rat brain homogenate
assay.details: 2-AG Accumulation Assay in rat brain homogenate
Assay type: biochemical
reported.conditions: compound @1 µM, percent of vehicle, read-out: Rat Brain 2AG % VehCntrl (%) @1 µM
property.name: activity at 1 µM (%)

1. O=C(NC1CN(C2CN(C(=O)c3ccc4c(ccn4-c4ccc(F)cc4F)c3)C2)C1)c1cscn1 :: 273
2. O=C(c1sc2cc(F)ccc2c1Cl)N1CC(N2CC(N3Cc4ccccc4C3=O)C2)C1 :: 208
3. O=C(NC1CN(C2CN(C(=O)c3sc4cc(C(F)(F)F)ccc4c3Cl)C2)C1)c1nccs1 :: 460

A: O=C(c1ccc2c(ccn2-c2ccc(C(F)(F)F)cc2)c1)N1CC(N2CC(N3Cc4ccccc4C3=O)C2)C1
B: O=C(c1ccc(-c2ccc(C(F)(F)F)s2)cc1)N1CC(N2CC(N3Cc4ccccc4C3=O)C2)C1
# returns the entry with the larger activity at 1 µM; inputs A and B Let me know the label of the one you choose.
A
(A: 483%, B: 204%)

// data source = patent US8759333B2
